# measured.on: EphrinB2-EphB4 (Homo sapiens)
# Construct: soluble human EphB1-His, EphB2-His, and EphB4-His ectodomains; commercially available human EphrinB1-Fc (EB1), EphrinB2-Fc (EB2), and EphrinB3-Fc (EB3) ectodomain proteins; purchased
# Sequence (P54760 16-539 limits assumed): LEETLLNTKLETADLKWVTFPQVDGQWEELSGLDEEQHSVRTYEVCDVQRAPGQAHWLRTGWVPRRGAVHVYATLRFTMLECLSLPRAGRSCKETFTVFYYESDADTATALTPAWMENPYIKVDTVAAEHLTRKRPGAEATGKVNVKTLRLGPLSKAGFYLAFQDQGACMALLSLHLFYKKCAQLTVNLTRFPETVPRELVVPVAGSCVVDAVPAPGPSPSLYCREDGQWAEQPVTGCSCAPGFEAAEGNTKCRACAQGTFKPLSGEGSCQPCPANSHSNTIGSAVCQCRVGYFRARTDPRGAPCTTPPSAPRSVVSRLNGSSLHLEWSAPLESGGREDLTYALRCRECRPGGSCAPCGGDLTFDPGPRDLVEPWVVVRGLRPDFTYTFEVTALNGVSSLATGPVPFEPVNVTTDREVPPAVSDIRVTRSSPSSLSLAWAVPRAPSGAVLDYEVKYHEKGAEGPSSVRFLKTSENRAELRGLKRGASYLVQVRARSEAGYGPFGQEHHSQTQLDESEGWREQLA
# method: Octet 80 sec association/500 sec dissociation, immobilized human EphrinB2-Fc binding to soluble human EphB4-His
# experimental.parameters: at 3.2 μM and 80 seconds; immobilized human EphrinB2; 25 nM soluble human EphB4
Marks after values point to notes of the source that are not given here.
result.type: EphB4 Inhibition Percent, Inhibition of Association ONLY

Below: 3 molecules and their reported EphB4 Inhibition Percent, Inhibition of Association ONLY.
Oc1ccc(CN2CCN(Cc3ccc(C(F)(F)F)cc3)CC2)c2cccnc12 = 0*/0*%
O=S1(=O)CCN(Cc2cc(I)c(O)c3ncccc23)CC1 = 12.9%
O=S1(=O)CCN(Cc2cc(Br)c(O)c3ncccc23)CC1 = 18.1%

[ask] Give the value of EphB4 Inhibition Percent, Inhibition of Association ONLY reported for the following: "COc1ccc2[nH]cc(C(=O)N3CCN(c4ccc(Br)cc4)CC3)c2c1"
[reply] 20.2%

[ask] Please indicate EphB4 Inhibition Percent, Inhibition of Association ONLY recorded for "Cc1ccc2c(CN3CCN(c4ccc(Br)cc4)CC3)ccc(O)c2n1"
[reply] 0*%

[ask] Hello, please tell me recorded EphB4 Inhibition Percent, Inhibition of Association ONLY for this one: "O=S1(=O)CCN(Cc2ccc(O)c3ncccc23)CC1"
[reply] 10.8%

[ask] Provide one value: measured EphB4 Inhibition Percent, Inhibition of Association ONLY of Oc1ccc(CN2CCN(c3ccc(Br)cc3)CC2)c2cccnc12 [Compound 27]
[reply] 11.4/11.4%

[ask] Assign EphB4 Inhibition Percent, Inhibition of Association ONLY to the following record: "Oc1ccc(CN2CCN(C3CCCC3)CC2)c2cccnc12"
[reply] 0.5%

[ask] Specify EphB4 Inhibition Percent, Inhibition of Association ONLY for "O=[N+]([O-])c1ccc(N2CCN(Cc3ccc(O)c4ncccc34)CC2)cc1" and stop.
[reply] 9.6%

---

Reported values of pIC50 for individual entries
# measured.on: EphrinB2-EphB2 (Homo sapiens)
# Construct: soluble human EphB1-His, EphB2-His, and EphB4-His ectodomains; commercially available human EphrinB1-Fc (EB1), EphrinB2-Fc (EB2), and EphrinB3-Fc (EB3) ectodomain proteins; purchased
# Sequence (P29323 19-543 limits assumed): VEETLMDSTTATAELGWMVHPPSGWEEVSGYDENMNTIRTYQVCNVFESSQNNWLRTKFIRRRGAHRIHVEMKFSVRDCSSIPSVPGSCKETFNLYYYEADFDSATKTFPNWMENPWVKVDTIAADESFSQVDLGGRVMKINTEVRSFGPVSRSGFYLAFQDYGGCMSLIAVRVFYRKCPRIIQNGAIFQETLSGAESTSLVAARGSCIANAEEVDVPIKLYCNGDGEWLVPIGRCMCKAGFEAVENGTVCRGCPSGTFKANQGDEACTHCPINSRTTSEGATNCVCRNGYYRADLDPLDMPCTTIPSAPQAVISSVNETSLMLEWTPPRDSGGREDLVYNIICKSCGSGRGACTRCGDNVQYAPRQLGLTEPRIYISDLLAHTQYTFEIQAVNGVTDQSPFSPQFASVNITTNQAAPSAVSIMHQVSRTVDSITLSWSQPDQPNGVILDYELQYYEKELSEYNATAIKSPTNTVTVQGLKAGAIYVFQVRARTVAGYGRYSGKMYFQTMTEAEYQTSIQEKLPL
# method: Octet 80 sec association/500 sec dissociation, immobilized human EphrinB2-Fc binding to soluble human EphB2-His
# experimental.parameters: EphB2; Association (75″); read-out: Relative IC50
Please report pIC50 as the negative decimal logarithm of the molar concentration, giving only the number.

Oc1c(I)cc(CN2CCOCC2)c2cccnc12 = 5.92

Consider the record given below.
[ask] // Input: "Oc1c(Br)cc(CN2CCN(c3ccc(Br)cc3)CC2)c2cccnc12" . Output its pIC50 only.
[reply] 6.55

---

# measured.on: EphB1-EphrinB2 (Rattus norvegicus, UniProt P09759)
# Construct: rat EphB1-Fc residues 18-538; mouse EB2-His residues 18-232; purchased R&D Systems (EphB1-Fc); Sino Biologicals (EB2-His)
# Sequence (P09759 18-538): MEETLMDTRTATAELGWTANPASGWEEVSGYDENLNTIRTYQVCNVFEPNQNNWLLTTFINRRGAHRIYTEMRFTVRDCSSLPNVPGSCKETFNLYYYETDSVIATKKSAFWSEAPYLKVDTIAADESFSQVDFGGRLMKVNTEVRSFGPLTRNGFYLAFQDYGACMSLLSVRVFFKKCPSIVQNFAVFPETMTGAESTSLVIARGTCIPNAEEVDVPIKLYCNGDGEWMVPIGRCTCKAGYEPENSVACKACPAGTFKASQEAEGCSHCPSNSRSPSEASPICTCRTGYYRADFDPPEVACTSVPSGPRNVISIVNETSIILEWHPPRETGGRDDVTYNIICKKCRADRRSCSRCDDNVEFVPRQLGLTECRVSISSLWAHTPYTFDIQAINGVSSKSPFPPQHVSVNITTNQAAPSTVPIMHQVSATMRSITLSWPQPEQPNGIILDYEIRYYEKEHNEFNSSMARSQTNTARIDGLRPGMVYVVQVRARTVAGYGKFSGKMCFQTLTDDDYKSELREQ
# method: Octet RED384, immobilized rat EphB1-Fc binding to 30 nM mouse EB2-His (400 sec / 500 sec)
# Parameters: species or system mouse EphrinB2
# experimental.parameters: Relative Dissociation IC50, rEphB1-mEphrinB2; immobilized rat EphB1; 50 nM soluble mouse EphrinB2; dissociation; relative
pIC50: −log10 of the molar value.
Classification field: met = pIC50 at or over 6; not met = pIC50 under 6.

Examples from the recorded data:
O=[N+]([O-])c1cc(CN2CCOCC2)c2cccnc2c1O [Compound 10] = not met
Oc1ccc(CN2CCN(Cc3ccc(C(F)(F)F)cc3)CC2)c2cccnc12 [Compound 48] = not met
Oc1c(Cl)cc(CN2CCOCC2)c2cccnc12 [Compound 4] = met

Attention now shifts to the item below.
[ask] Please check the record Oc1ccc(CN2CCOCC2)c2cccnc12 [Compound 1, 5-(morpholinomethyl)quinolin-8-ol] and state if its pIC50 is at or above 6.
[reply] not met
